- measured target: HIS-Keap1 full length / Biotin-Nrf2 (16-mer) (Homo sapiens)
- Sequence (Q14145 whole entry): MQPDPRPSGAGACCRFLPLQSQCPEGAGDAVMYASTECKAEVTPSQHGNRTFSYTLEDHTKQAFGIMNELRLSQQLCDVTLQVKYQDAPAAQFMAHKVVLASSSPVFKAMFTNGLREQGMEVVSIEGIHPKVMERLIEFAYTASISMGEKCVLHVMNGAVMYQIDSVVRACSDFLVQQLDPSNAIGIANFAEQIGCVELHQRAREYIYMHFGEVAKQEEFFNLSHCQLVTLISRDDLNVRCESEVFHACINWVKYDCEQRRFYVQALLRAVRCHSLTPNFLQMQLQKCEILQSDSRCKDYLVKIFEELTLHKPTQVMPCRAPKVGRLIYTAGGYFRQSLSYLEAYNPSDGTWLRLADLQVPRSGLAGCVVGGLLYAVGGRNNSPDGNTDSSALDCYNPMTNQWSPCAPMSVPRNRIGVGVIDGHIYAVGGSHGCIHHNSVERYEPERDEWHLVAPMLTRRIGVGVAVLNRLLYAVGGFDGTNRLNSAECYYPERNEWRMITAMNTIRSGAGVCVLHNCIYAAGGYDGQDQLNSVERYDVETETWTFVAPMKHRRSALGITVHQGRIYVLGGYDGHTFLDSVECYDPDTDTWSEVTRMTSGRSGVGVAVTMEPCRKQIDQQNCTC
- assay notes: biochemical
Entries and their IC50 values follow.

compound | uom | result comparator | IC50
Cc1c2ccc3c1nnn3CCCCCn1cc(c3ccccc31)C(=O)N1CCc3ccc(cc3C1)C2CC(=O)O (stereo not shown) | nM | = | 0.2
Cc1cc2ncc1C(CC(=O)O)c1ccc3c(c1)CN(CC3)C(=O)c1cn(C)c3ccc(cc13)CCCCCO2 (stereo not shown) | nM | > | 990
Cc1c2cnc3c1nnn3CCCCCc1ccc3c(c1)cc(n3C)C(=O)N1CCc3ccc(cc3C1)C2CC(=O)O (stereo not shown) | nM | = | 0.7
Cc1c2ccc3c1nnn3C/C=C/CCc1ccc3c(c1)cc(n3C)C(=O)N1CCc3ccc(cc3C1)[C@H]2[C@H](C)C(=O)O | nM | = | 0.9
Cc1c2cnc3c1nnn3CCCCCCc1ccc(c(F)c1)C(=O)N1CCc3ccc(cc3C1)C2CC(=O)O (stereo not shown) | nM | = | 0.1
Cc1cc2ccc1C(=O)N1CCc3ccc(cc3C1)C(C(C)(C)C(=O)O)c1ccc3c(c1)nnn3CCCCCCO2 (stereo not shown) | nM | < | 0.1
COc1cc2ccc1C(=O)N1CCc3ccc(cc3C1)C(CC(=O)O)c1cnc3c(nnn3CCCCCC2)c1C (stereo not shown) | nM | = | 1.2
Cc1c2cnc3c1nnn3CCCC/C=C/Cc1ccc(cc1)C(=O)N1CCc3ccc(cc3C1)[C@@H]2CC(=O)O | nM | = | 0.5
Cc1cc2cnc1OCCCCCc1ccc(cc1)C(=O)N1CCc3ccc(cc3C1)[C@H]2[C@@H](C)C(=O)O | nM | > | 9900
Cc1c2ccc3c1nnn3CCCCCc1ccc3c(c1)cc(n3C)C(=O)N1CCc3ccc(cc3C1)[C@H]2[C@H](C)C(=O)O | nM | = | 0.4
O=C(O)CC1c2cnc(nc2)OCCCCc2ccc(c(Cl)c2)C(=O)N2CCc3ccc1cc3C2 (stereo not shown) | nM | = | 245
Cc1cc2ccc1C(=O)N1CCc3ccc(cc3C1)C(CC(=O)O)c1ccc3c(nnn3CCCOCCO2)c1C (stereo not shown) | nM | = | 1
C[C@H](C(=O)O)[C@H]1c2ccc3c(c2)CN(CC3)C(=O)c2ccc(cc2)OCCCCCn2nnc3cc1ccc32 | nM | = | 49.1
O=C(O)CC1c2cnc(nc2)OCCCCCc2ccc(c(F)c2)C(=O)N2CCc3ccc1cc3C2 (stereo not shown) | nM | = | 6.2
Cc1cc2ccc1OCCCCCn1nnc3c(C)c(ccc31)C(CC(=O)O)c1ccc3c(c1)CN(CC3)C2=O (stereo not shown) | nM | = | 3
Cc1cc2ccc1C(=O)N1CCc3ccc(cc3C1)C(CC(=O)O)c1ccc3c(c1)nnn3CCCCCCO2 (stereo not shown) | nM | < | 0.1
Cc1c2cnc3c1nnn3CCCCCc1ccc(c(F)c1)C(=O)N1CCc3ccc(cc3C1)C2CC(=O)O (stereo not shown) | nM | = | 0.3
Cc1cc2cc(C)c1C(=O)N1CCc3ccc(cc3C1)C(CC(=O)O)c1ccc3c(c1)nnn3CCCCCCO2 (stereo not shown) | nM | < | 0.1
Cc1c2ccc3c1nnn3CCCCCc1cnc3c(c1)cc(n3C)C(=O)N1CCc3ccc(cc3C1)[C@@H]2CC(=O)O | nM | = | 0.3
Cc1c2ccc3c1nnn3CCCCCc1ccc(nc1)C(=O)N1CCc3ccc(cc3C1)C2CC(=O)O (stereo not shown) | nM | = | 1.3
O=C(O)CC1c2cnc(nc2)OCCCCCc2ccc(c(Cl)c2)C(=O)N2CCc3ccc1cc3C2 (stereo not shown) | nM | = | 10.4
Cc1c2ccc3c1nnn3CCCCCOc1ccc(cc1)C(=O)N1CCc3ccc(cc3C1)[C@@H]2[C@@H](C)C(=O)O | nM | = | 0.4
Cc1cc2ccc1OCCCCCCn1nnc3c(C)c(ccc31)C(CC(=O)O)c1ccc3c(c1)CN(CC3)C2=O (stereo not shown) | nM | = | 6
O=C(O)CC1c2ccc3c(c2)CN(CC3)C(=O)c2ccc(cc2C(F)(F)F)OCCCCCCn2nnc3cc1ccc32 (stereo not shown) | nM | < | 0.1
Cc1c2ccc3c1nnn3CCCCCCc1cc(F)c(c(F)c1)C(=O)N1CCc3ccc(cc3C1)C2CC(=O)O (stereo not shown) | nM | = | 1.3
CC(C(=O)O)C1c2ccc3c(c2)CN(CC3)C(=O)c2ccc(cc2)OCCCCCn2nnc3cc1ccc32 (stereo not shown) | nM | < | 0.1
C[C@@H](C(=O)O)[C@H]1c2ccc3c(c2)CN(CC3)C(=O)c2ccc(cc2)OCCCCCn2nnc3cc1ccc32 | nM | = | 1.4
O=C(O)CC1c2ccc3c(c2)CN(CC3)C(=O)c2ccc(c(F)c2F)OCCCCCCn2nnc3cc1ccc32 (stereo not shown) | nM | < | 0.1

Cited source for all entries: patent US12692274B2
